Values of Kd reported for Prostaglandin G/H synthase 1 (Homo sapiens, UniProt P23219) appear below.
Quote the value and follow it with the unit of measurement.

### Prompt Report Kd for O=C(O)c1cn2ccccc2n1 tested on Prostaglandin G/H synthase 1 (Homo sapiens, UniProt P23219).
Sequence (P23219 whole entry): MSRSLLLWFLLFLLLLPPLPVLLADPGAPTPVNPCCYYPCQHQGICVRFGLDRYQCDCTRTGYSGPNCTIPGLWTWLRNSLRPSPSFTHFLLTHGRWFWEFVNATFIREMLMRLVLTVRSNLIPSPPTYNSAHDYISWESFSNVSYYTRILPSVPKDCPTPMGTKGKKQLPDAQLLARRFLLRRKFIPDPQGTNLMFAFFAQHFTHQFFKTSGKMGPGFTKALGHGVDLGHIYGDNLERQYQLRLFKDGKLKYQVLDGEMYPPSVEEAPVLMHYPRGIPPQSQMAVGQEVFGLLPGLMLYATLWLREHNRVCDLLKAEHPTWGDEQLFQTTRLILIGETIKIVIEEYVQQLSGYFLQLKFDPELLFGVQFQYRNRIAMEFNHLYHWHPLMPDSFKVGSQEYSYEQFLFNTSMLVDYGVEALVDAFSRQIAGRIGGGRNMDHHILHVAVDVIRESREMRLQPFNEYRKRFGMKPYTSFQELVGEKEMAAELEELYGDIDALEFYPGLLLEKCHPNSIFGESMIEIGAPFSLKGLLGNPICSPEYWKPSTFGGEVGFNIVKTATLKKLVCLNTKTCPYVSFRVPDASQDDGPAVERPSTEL
### Response 1540 nM

### Prompt Report Kd for O=C(O)c1nc2ccccn2c1[N+](=O)[O-] tested on Prostaglandin G/H synthase 1 (Homo sapiens, UniProt P23219).
### Response 15.6 nM

### Prompt Report Kd for CCOC(=O)c1nc2ccccn2c1[N+](=O)[O-] tested on Prostaglandin G/H synthase 1 (Homo sapiens, UniProt P23219).
### Response 1040 nM

### Prompt Report Kd for Nc1c(C(=O)O)nc2ccccn12 tested on Prostaglandin G/H synthase 1 (Homo sapiens, UniProt P23219).
### Response 262 nM

----------
Record form. Attribute: inhibition in vivo at 10 mg/kg. Fill in for each entry.
System: Rattus norvegicus
Experiment: Anti-inflammatory activity in Rattus norvegicus Wistar (rat) assessed as inhibition of carrageenan-induced paw edema at 10 mg/kg administered for 1 hr followed by carrageenan challenge measured at 3 hr relative to control
Assay type: functional
Supply the numeric figure in %, leaving out any unit text.

### Prompt Requested read-out: inhibition in vivo at 10 mg/kg. Entry: CCOC(=O)c1nc2ccccn2c1[N+](=O)[O-]
### Response 25.4

### Prompt Requested read-out: inhibition in vivo at 10 mg/kg. Entry: O=C(O)c1cn2ccccc2n1
### Response 69.4

### Prompt Requested read-out: inhibition in vivo at 10 mg/kg. Entry: O=C(O)c1nc2ccccn2c1[N+](=O)[O-]
### Response 24.4

### Prompt Requested read-out: inhibition in vivo at 10 mg/kg. Entry: Nc1c(C(=O)O)nc2ccccn12
### Response 80.3

----------
Target: Prostaglandin G/H synthase 2 (Homo sapiens)
Sequence (P35354 whole entry): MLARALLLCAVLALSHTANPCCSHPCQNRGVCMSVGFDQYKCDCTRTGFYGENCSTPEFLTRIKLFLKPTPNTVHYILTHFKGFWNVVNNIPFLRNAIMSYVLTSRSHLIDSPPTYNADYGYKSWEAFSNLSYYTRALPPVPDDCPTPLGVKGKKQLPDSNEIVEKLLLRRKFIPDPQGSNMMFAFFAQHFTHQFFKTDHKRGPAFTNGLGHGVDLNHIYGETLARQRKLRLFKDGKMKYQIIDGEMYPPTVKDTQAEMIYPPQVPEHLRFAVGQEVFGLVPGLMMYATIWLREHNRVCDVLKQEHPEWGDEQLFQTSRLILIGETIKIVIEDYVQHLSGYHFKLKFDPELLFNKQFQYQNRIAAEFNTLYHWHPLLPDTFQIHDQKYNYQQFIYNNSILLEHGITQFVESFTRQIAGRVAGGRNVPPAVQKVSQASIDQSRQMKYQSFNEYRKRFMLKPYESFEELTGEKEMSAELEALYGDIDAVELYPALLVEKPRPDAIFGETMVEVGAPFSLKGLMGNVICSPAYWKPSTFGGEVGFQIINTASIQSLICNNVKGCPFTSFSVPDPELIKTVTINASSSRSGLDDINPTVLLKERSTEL
EXPERIMENTAL ENDPOINT: pKd
Scale for pKd: -log10 of concentration given in mol/L; no unit attached.

### Prompt Report pKd for Nc1c(C(=O)O)nc2ccccn12 tested on Prostaglandin G/H synthase 2 (Homo sapiens).
### Response 6.35

### Prompt Report pKd for O=C(O)c1cn2ccccc2n1 tested on Prostaglandin G/H synthase 2 (Homo sapiens).
### Response 6.19

### Prompt Report pKd for O=C(O)c1nc2ccccn2c1[N+](=O)[O-] tested on Prostaglandin G/H synthase 2 (Homo sapiens).
### Response 7.30

### Prompt Report pKd for CCOC(=O)c1nc2ccccn2c1[N+](=O)[O-] tested on Prostaglandin G/H synthase 2 (Homo sapiens).
### Response 6.64
